Tested on: 786-0
Test: NCI tumour cell line growth inhibition, 48 h
Activity calls are given as the source filed them. No stated cut-off is given here; in the data, active = GI50 up to about 1.1 µM and inactive = higher.
Hi! Could you answer with just one of these? label 1 (active), label 0 (inactive)

{"columns": ["compound", "category-label"],
 "data": [
  ["Cc1ccc(C2=Nc3ccccc3SC(c3cccc([N+](=O)[O-])c3)C2)cc1 (stereo unspecified)", "label 0"],
  ["O=C(N/N=C/c1ccc(Cl)cc1)c1ccccc1Nc1ccccc1C(=O)N/N=C/c1ccc(Cl)cc1", "label 0"],
  ["COC(=O)c1sc2c(c1C(=O)OC)/C(=N/c1ccc(OC)cc1)S/C2=N\\c1ccc(OC)cc1", "label 1"],
  ["CC1(C)C=C(/C=N/Nc2ccc(Br)cc2)C(C#N)=C(O)C1(C#N)C#N", "label 0"],
  ["C=C(NC(=O)C(=C)NC(=O)c1csc(C2=NC3c4csc(n4)C4NC(=O)c5csc(n5)C(C(C)(O)C(C)O)NC(=O)C5CSC(=N5)/C(=C/C)NC(=O)C(C(C)O)NC(=O)c5csc(n5)C3(CC2)NC(=O)C(C)NC(=O)C(=C)NC(=O)C(C)NC(=O)C(C(C)CC)NC2C=Cc3c(C(C)O)cc(nc3C2O)C(=O)OC4C)n1)C(N)=O (stereo unspecified)", "label 0"],
  ["O=C(/C=C/c1ccc(Cl)c(Cl)c1)C1CCC(Cl)CC1 (stereo unspecified)", "label 0"],
  ["CC1OC(OC2C(O)COC(OC3C(C)OC(OC4C(OC(=O)[C@]56CCC(C)(C)C[C@@H]5C5=CCC7[C@@]8(C)C[C@H](O)[C@H](OC9OC(CO)C(O)C(O)C9O)[C@@](C)(CO)[C@@H]8CC[C@@]7(C)[C@]5(C)CC6)OCC(O)C4O)C(O)C3O)C2O)C(O)C(O)C1O (stereo partly specified)", "label 0"],
  ["COc1cccc(C(=O)Oc2ccc(OS(=O)(=O)c3ccc(C)cc3)cc2)c1C#N", "label 0"]
]}

Query: Record lookup: outcome of this test for CN1CCC/C1=C1/C(=O)N(c2ccccc2)N=C1c1ccc[nH]1 ?
Reply: label 0

Query: Same lookup for C[N+](C)(C)CC1CCCC(C[N+](C)(C)C)C1=NO (stereo unspecified) , please.
Reply: label 0

Query: Please give the result for O=C1/C(=C/C=C/c2ccccc2)N=C(c2ccccc2)N1C1Nc2cc3c(cc2S1)NC(N1C(=O)/C(=C/C=C/c2ccccc2)N=C1c1ccccc1)S3 (stereo unspecified) too.
Reply: label 0

Query: Follow-up entry: O=C(CCCn1cnc([N+](=O)[O-])n1)NCCCn1ccnc1[N+](=O)[O-]
Reply: label 0

Query: Query O=C1c2ccccc2-n2c1nc1ccc(Cl)cc1c2=O next
Reply: label 0

Query: Another compound to look at: CCOC(=O)C12CCC(c3c(C)cccc3C)(O1)C(C(=O)OC)=C2C(=O)OC (stereo unspecified)
Reply: label 0

Query: Would you mind doing CC#CCOC(=O)c1ccccc1OC(C)=O as well?
Reply: label 0

Query: Also CCN(CC)[C@@H]1c2cc3c(cc2C(c2cc(OC)c(O)c(OC)c2)C2C(=O)CO[C@@H]21)OCO3 (stereo partly specified) , if possible.
Reply: label 0

###

System: U-251
Experiment: NCI tumour cell line growth inhibition, 48 h
The source made the active and inactive calls. Rule as the data show it: active = GI50 up to about 1.1 µM and inactive = higher.
Reported GI50 is given for each of the following compounds.

Worked cases, answers included:
{"columns": ["compound", "assay-readout", "test-result"],
 "data": [
  ["NS(=O)(=O)c1ccc(NC(=O)Cc2nc3ccccc3s2)cc1", "GI50", "15.2 µM (inactive)"],
  ["COc1nc(N(C)C)nc2c1[n+](C)cn2C [HETEROMINE A]", "GI50", "15.6 µM (inactive)"],
  ["[N-]=[N+]=Nc1cc(=O)n2c3c(cccc13)CCC2", "GI50", "> 100 µM (inactive)"],
  ["C/C(=C\\c1ccccc1)C(=O)NCc1ccc(C(=O)NCCC(C)C)cc1", "GI50", "86.7 µM (inactive)"]
]}

Query: GI50; subject: Cc1ccc(S(=O)(=O)c2ccsc2NC(=O)C(F)(F)F)cc1
Reply: 70.8 µM (inactive)
